System: SNB-75 CNS
Assay Remarks: NCI-60 one-dose screen, 48 h
Test Parameters: 10 µM unless noted
Compounds without any hit were thinned out: in the full panel of roughly 83,000, 20% have a hit. Active and inactive are the calls of the source. The calls were made as follows: active = growth percent below 10; inactive = the rest.
Classes used: true = active, false = inactive

{"columns": ["Molecule", "Class Label"],
 "data": [
  ["C=CC1=C[C@@H]2[C@@H]3O[C@]4(CC[C@H](O4)[C@@H](C)C[C@@H](O)C3=O)C[C@H](O)C3=NCC[C@@]32CC1", "true"],
  ["CC(C)=CC1C(C(=O)OCc2cccc(Oc3ccccc3)c2)C1(C)C (stereo unspecified)", "false"],
  ["CC12CCC3C(CCC4=CC(=O)CCC43CF)C1CCC2=O (stereo unspecified)", "false"],
  ["O=C(N/N=C\\c1ccc(N(CCCl)CCCl)cc1)c1cccc([N+](=O)[O-])c1", "false"],
  ["CCOC(=O)[C@@H](C)C[C@H](Cc1ccccc1)NC(=O)c1csc([C@@H](C[C@H](C(C)C)N(C)C(=O)[C@H](CCC(C)C)NC(=O)[C@H]2CCCCN2C)OC(C)=O)n1", "false"],
  ["CC(=O)O[C@H]1CC[C@@]2(C)C(=CC[C@H]3[C@@H]4C[C@@H](N5CC5)[C@H](C(C)=O)[C@@]4(C)CC[C@@H]32)C1", "false"],
  ["O=C1C2CCC1C(N1CCCC1)CC2 (stereo unspecified)", "false"],
  ["O=P(Oc1ccc(Cl)cc1)(N1CC1)N1CC1", "false"],
  ["CC1=C(CNO)C2=C(C)C3(CC3)[C@@](C)(O)C(=O)C2=C1", "true"],
  ["O=C1CNC(c2ccccc2)c2cc(Cl)ccc2N1 (stereo unspecified)", "false"],
  ["COc1cc(/C=N/C2=C(C#N)C(c3ccco3)c3c(c4cc(C)ccc4oc3=O)O2)cc(OC)c1OC (stereo unspecified)", "false"],
  ["CC(C)CCC(=O)O[C@H]1CC[C@H]2[C@@H]3CCC4=CC(=O)CC[C@]4(C)[C@H]3CC[C@]12C", "false"],
  ["O=C1C2CC=CCC2C(=O)N1SC(Cl)(Cl)Cl (stereo unspecified)", "false"],
  ["COC(=O)[C@@H](C)C[C@H](Cc1ccccc1)NC(=O)c1csc([C@@H](C[C@H](C(C)C)N(C)C(=O)[C@H](C)NC(=O)[C@H]2CCCN2C)OC(C)=O)n1", "false"],
  ["COC(=O)[C@@H](C)C[C@H](Cc1ccccc1)NC(=O)c1nc([C@@H](C[C@H](C(C)C)N(C)C(=O)[C@@H](NC(=O)[C@H]2C[C@H](O)CCN2C)C(C)C)OC(C)=O)sc1C(C)C", "true"],
  ["COC(=O)[C@H](C[C@H](Cc1ccccc1)NC(=O)c1csc([C@@H](C[C@H](C(C)C)N(C)C(=O)[C@@H](NC(=O)[C@H]2CCCCN2C)C(C)C)OC(C)=O)n1)NC(=O)OCc1ccccc1", "false"]
]}

Data provenance is PubChem BioAssay (NCI).
